Assay: TLR3 IRF3 reporter activation blockers – cell-based, poly I:C stimulus, luciferase, 10K MLSCN set, primary screen (AID 602277)
Details: HEK293-TLR3 RL24 IRF3 luciferase reporter, at 10 µM, hits give high values
Parameter threshold = 20%. Response is YES when inhibition meets or exceeds it, else NO.

Enquiry: Say whether `CCCS(=O)(=O)N1CCN(C(=O)CCC2CCCC2)CC1` shows inhibition of 20% or more.
Return: NO

Enquiry: Say whether `COc1ccc(-n2ncc3c(NCc4ccc5c(c4)OCO5)ncnc32)cc1` shows inhibition of 20% or more.
Return: NO

Enquiry: Say whether `CN1CCN(C(=O)c2cnn3c(C(F)F)cc(C4CC4)nc23)CC1` shows inhibition of 20% or more.
Return: YES

Enquiry: Say whether `COc1ccc(-c2noc(CN3C(=O)c4ccccc4C3=O)n2)cc1` shows inhibition of 20% or more.
Return: NO

Enquiry: Say whether `CN(C(=O)c1ccno1)c1nnc(-c2cnccn2)s1` shows inhibition of 20% or more.
Return: NO
